System: U2OS
PROCEDURE_DETAILS: cell viability relative to DMSO; higher = less toxic
CONDITION_DESCRIPTION: 72 h; 10000 nM
ASSAY_READOUT: cell viability (%)

{"COMPOUND": "CS(=O)(=O)Nc1ccc2oc3c(OC(F)F)ccc(C(=O)Nc4c(Cl)cncc4Cl)c3c2c1 [oglemilast]", "TEST_SYSTEM": "U2OS", "ASSAY_READOUT": "cell viability", "DATA_VALUE": 94.2}
{"COMPOUND": "O=C(Nc1cc(C(F)(F)F)cc(C(F)(F)F)c1)c1cnc(Cl)nc1C(F)(F)F", "TEST_SYSTEM": "U2OS", "ASSAY_READOUT": "cell viability", "DATA_VALUE": 94.9}
{"COMPOUND": "CCCCC/C=C\\C/C=C\\C/C=C\\C/C=C\\CCCC(=O)Nc1ccc(O)cc1 [AM-404]", "TEST_SYSTEM": "U2OS", "ASSAY_READOUT": "cell viability", "DATA_VALUE": 96.3}
{"COMPOUND": "Cc1cc(Oc2ccc3nc(COc4ccc(CC5SC(=O)NC5=O)cc4)n(C)c3c2)cc(C)c1N (stereo unspecified) [efatutazone]", "TEST_SYSTEM": "U2OS", "ASSAY_READOUT": "cell viability", "DATA_VALUE": 97.6}
{"COMPOUND": "CCN(C(=O)c1c(O)c2c(Cl)cccc2n(C)c1=O)c1ccccc1 [laquinimod]", "TEST_SYSTEM": "U2OS", "ASSAY_READOUT": "cell viability", "DATA_VALUE": 96.9}
{"COMPOUND": "CCCCOC(=O)c1ccccc1Nc1cccc(C(F)(F)F)c1 [ufenamate]", "TEST_SYSTEM": "U2OS", "ASSAY_READOUT": "cell viability", "DATA_VALUE": 108}
{"COMPOUND": "C[C@H](NC(=O)/C(C#N)=C/c1ccc(O)c(O)c1)c1ccccc1 [tyrphostin-AG-835]", "TEST_SYSTEM": "U2OS", "ASSAY_READOUT": "cell viability", "DATA_VALUE": 91}
{"COMPOUND": "CCn1cc(C(=O)O)c(=O)c2ccc(C)nc21 [nalidixic-acid]", "TEST_SYSTEM": "U2OS", "ASSAY_READOUT": "cell viability", "DATA_VALUE": 104}
{"COMPOUND": "CC(C)C[C@H](NC(=O)CNC(=O)c1cc(Cl)ccc1Cl)B1OC(=O)C(CC(=O)O)(CC(=O)O)O1 [ixazomib-citrate]", "TEST_SYSTEM": "U2OS", "ASSAY_READOUT": "cell viability", "DATA_VALUE": -0.3}
{"COMPOUND": "OCc1ccc(-c2nn(Cc3ccccc3)c3ccccc23)o1 [YC-1]", "TEST_SYSTEM": "U2OS", "ASSAY_READOUT": "cell viability", "DATA_VALUE": 65.6}
{"COMPOUND": "O=C(c1c(F)ccc(NS(=O)(=O)N2CC[C@@H](F)C2)c1F)c1c[nH]c2ncc(-c3cnc(C4CC4)nc3)cc12 [PLX8394]", "TEST_SYSTEM": "U2OS", "ASSAY_READOUT": "cell viability", "DATA_VALUE": 93.3}
{"COMPOUND": "O=C1NCN(c2ccccc2)C12CCN(CCCC(c1ccc(F)cc1)c1ccc(F)cc1)CC2 [fluspirilene]", "TEST_SYSTEM": "U2OS", "ASSAY_READOUT": "cell viability", "DATA_VALUE": 90.5}
{"COMPOUND": "Cc1noc(-c2ccc(-c3ccc(CC(=O)O)cc3)cc2)c1NC(=O)O[C@H](C)c1ccccc1 [AM095]", "TEST_SYSTEM": "U2OS", "ASSAY_READOUT": "cell viability", "DATA_VALUE": 97.5}
{"COMPOUND": "O=C(NOCCO)c1ccc2cncn2c1Nc1ccc(I)cc1F [GDC-0623]", "TEST_SYSTEM": "U2OS", "ASSAY_READOUT": "cell viability", "DATA_VALUE": 25.5}
{"COMPOUND": "Cc1onc(-c2ccccc2)c1-c1ccc(S(N)(=O)=O)cc1 [valdecoxib]", "TEST_SYSTEM": "U2OS", "ASSAY_READOUT": "cell viability", "DATA_VALUE": 98.5}
{"COMPOUND": "CC(C)C[C@@H]1NC(=O)[C@@H](C(C)C)NC(=O)[C@@H]2CCCN2C(=O)[C@@H](CC(=O)O)NC(=O)[C@@H](Cc2c[nH]c3ccccc23)NC1=O [BQ-123]", "TEST_SYSTEM": "U2OS", "ASSAY_READOUT": "cell viability", "DATA_VALUE": 101}
{"COMPOUND": "Cc1c(C2CCN(CCc3ccccc3)CC2)noc1-c1ccc(Cl)cc1", "TEST_SYSTEM": "U2OS", "ASSAY_READOUT": "cell viability", "DATA_VALUE": 96.6}
{"COMPOUND": "CCN(CC)C(=O)N[C@H]1C[C@@H]2c3cccc4[nH]cc(c34)C[C@H]2N(C)C1 [terguride]", "TEST_SYSTEM": "U2OS", "ASSAY_READOUT": "cell viability", "DATA_VALUE": 94.7}
{"COMPOUND": "Cc1ccccc1NC(=N)Nc1ccccc1C [ditolylguanidine]", "TEST_SYSTEM": "U2OS", "ASSAY_READOUT": "cell viability", "DATA_VALUE": 94.7}
{"COMPOUND": "C=CCN1CCN(c2nc3ccccc3nc2C#N)CC1 [3-AQC]", "TEST_SYSTEM": "U2OS", "ASSAY_READOUT": "cell viability", "DATA_VALUE": 97.1}
{"COMPOUND": "COc1ccc2cc(-c3nc(-c4ccc([S+](C)[O-])cc4)[nH]c3-c3ccncc3)ccc2c1 (stereo unspecified) [tie2-kinase-inhibitor]", "TEST_SYSTEM": "U2OS", "ASSAY_READOUT": "cell viability", "DATA_VALUE": 84.6}
